target system: T1, pig CD47 (pig, UniProt Q9GKE8 19-303)
T1 construct: whole, on cells; also called CD47 on porcine RBCs
T1 sequence (looked up): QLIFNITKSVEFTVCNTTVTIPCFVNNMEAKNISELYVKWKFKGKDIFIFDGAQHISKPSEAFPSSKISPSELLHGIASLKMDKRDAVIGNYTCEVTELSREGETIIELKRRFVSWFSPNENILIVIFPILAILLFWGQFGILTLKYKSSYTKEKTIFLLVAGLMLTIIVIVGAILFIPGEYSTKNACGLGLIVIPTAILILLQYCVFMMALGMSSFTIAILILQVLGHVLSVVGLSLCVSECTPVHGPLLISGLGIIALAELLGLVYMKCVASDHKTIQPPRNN
measurement description: flow cytometry on RBCs, CHO supernatant 10 ng/ml
Protocol: RBCs are incubated for 60 minutes on ice with tissue culture supernatants containing the secreted humanized antibodies at a concentration of 10 ng/ml in a solution of phosphate buffered saline, pH 7.2, 2.5 mM EDTA (PBS+E), or with various concentrations of purified antibodies. […] Antibody binding is quantitated by comparison of mean fluorescence values relative to that of chimeric antibody >VxP037-01LC (SEQ ID NO:7))/>VxPO37-01HC (SEQ ID NO:57). […]
property name: mean fluorescence relative to chimeric antibody (ratio)
All answers are understood in ratio, so give the number only.

Reported mean fluorescence relative to chimeric antibody of chimeric antibody VxP037-01LC-Pro/VxP037-01HC-Pro (antibody, human IgG1, kappa, V domains shown, also called Chimera; VxP037-01LC/VxP037-01HC) VH: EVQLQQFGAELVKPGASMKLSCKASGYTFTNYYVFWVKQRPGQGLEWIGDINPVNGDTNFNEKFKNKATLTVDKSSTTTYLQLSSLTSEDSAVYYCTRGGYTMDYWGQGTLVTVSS VL: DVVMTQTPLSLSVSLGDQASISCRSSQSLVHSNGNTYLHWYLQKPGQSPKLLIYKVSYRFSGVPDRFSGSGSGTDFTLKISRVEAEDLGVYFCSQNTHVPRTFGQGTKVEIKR : 1

Reported mean fluorescence relative to chimeric antibody of Clone 24 (pVxK7b-037-hum24-LC / pVxK7b-037-hum24-HC) (antibody, human IgG1, kappa, V domains shown, also called Cl 24) VH: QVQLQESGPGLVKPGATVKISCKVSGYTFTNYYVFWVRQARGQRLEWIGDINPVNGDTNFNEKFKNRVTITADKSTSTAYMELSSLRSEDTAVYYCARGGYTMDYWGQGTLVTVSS VL: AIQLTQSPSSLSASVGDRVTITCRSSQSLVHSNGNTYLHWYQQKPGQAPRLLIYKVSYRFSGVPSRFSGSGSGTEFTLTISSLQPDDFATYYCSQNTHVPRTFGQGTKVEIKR : 1.1

Reported mean fluorescence relative to chimeric antibody of Clone 11 (pVxK7b-037-hum11-LC / pVxK7b-037-hum11-HC) (antibody, human IgG1, kappa, V domains shown, also called Cl 11) VH: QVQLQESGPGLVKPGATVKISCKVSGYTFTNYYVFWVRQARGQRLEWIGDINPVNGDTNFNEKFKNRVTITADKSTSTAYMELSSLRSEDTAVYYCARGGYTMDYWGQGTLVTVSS VL: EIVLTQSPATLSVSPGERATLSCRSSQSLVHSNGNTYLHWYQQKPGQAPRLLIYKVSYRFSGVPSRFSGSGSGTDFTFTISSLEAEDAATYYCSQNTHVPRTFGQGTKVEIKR : 1.2
